Cited source: PubChem BioAssay AID1259407

# Tested on: CCRIS mutagenicity, Ames/micronucleus/aberration tests
# Assay text: CCRIS mutagenicity studies
# Applied conditions: Test System: AMES SALMONELLA TYPHIMURIUM; Strain/Indicator: TA100; Metabolic Activation: NONE; Method: PREINCUBATION
Active and inactive are the calls of the source. No rule for the calls is given here.
Outcome (select one): active, inactive

Look up the recorded call for `Cc1cc(Cl)ccc1O` in this test. inactive

Look up the recorded call for `O=C1CCC(=O)O1` in this test. inactive

Look up the recorded call for `O=P(O)(O)O` in this test. inactive

Look up the recorded call for `O=C(O)CS` in this test. inactive

Look up the recorded call for `CN(c1nccc(=O)[nH]1)C1CCN(c2nc3ccccc3n2Cc2ccc(F)cc2)CC1` in this test. inactive

Look up the recorded call for `O=C(O)c1cc2ccccc2cc1O` in this test. inactive

Look up the recorded call for `CCCCCCCC(=O)Cl` in this test. inactive

Look up the recorded call for CCC(Cl)[N+](=O)[O-] (stereo not drawn) in this test. active

Look up the recorded call for O=NN1CCSC1CO (stereo not drawn) in this test. active

Look up the recorded call for `O=[N+]([O-])c1cccc2cccc([N+](=O)[O-])c12` in this test. active

Look up the recorded call for `O=c1ccc(=O)c2c(=O)c(Cl)c(Cl)c(=O)c1=2` in this test. inactive

Look up the recorded call for CCCCCCOCC1CO1 (stereo not drawn) in this test. active

Look up the recorded call for `CCCCCN(CCCCC)CCCCC` in this test. inactive

Look up the recorded call for `Cc1cc2ncccc2c2ncn(C)c12` in this test. inactive

Look up the recorded call for `[O-][n+]1ccc2cnncc2c1` in this test. inactive

Look up the recorded call for `Oc1cccc2ncccc12` in this test. inactive

Look up the recorded call for ClC(Cl)(Cl)C1CO1 (stereo not drawn) in this test. active

Look up the recorded call for `ClC(Cl)=C(Cl)/C(Cl)=C(\Cl)SCc1ccccc1` in this test. inactive

* * *

# Test system: CCRIS mutagenicity, Ames/micronucleus/aberration tests
# Assay text: CCRIS mutagenicity studies
# Applied conditions: Test System: AMES SALMONELLA TYPHIMURIUM; Strain/Indicator: TA1535; Metabolic Activation: RAT, LIVER, S-9, AROCLOR 1254; Method: PREINCUBATION
Activity calls are given as the source filed them. No rule for the calls is given here.
Outcome (select one): 1 = active, 0 = inactive

Look up the recorded call for `CNc1ccc(N(CCO)CCO)cc1[N+](=O)[O-]` in this test. 0

Look up the recorded call for OCC1CO1 (configuration not stated) in this test. 1

Look up the recorded call for ClC1(Cl)C2(Cl)C3(Cl)C4(Cl)C(Cl)(Cl)C5(Cl)C3(Cl)C1(Cl)C5(Cl)C24Cl (configuration not stated) in this test. 0

Look up the recorded call for CC1CCC(C(C)CS)CC1S (configuration not stated) in this test. 0

Look up the recorded call for `OCCNCCO` in this test. 0

Look up the recorded call for `Oc1ccccc1-c1ccccc1` in this test. 0

Look up the recorded call for `O=c1[nH]c(=O)n([C@H]2C[C@H](O)[C@@H](CO)O2)cc1I` in this test. 0

Look up the recorded call for `Clc1ccccc1Cl` in this test. 0

Look up the recorded call for `Brc1cccc(-c2ccccc2)c1` in this test. 0

Look up the recorded call for `CCc1ccccc1` in this test. 0

Look up the recorded call for `Cc1cccc(C)c1N` in this test. 0

Look up the recorded call for `NNc1ccccc1` in this test. 0
